meta.source: patent US20240409599A1

What koff was measured for each of the following?
- measured.on: T1, Human IL-18BP (isoform A) (human, UniProt O95998 31-194, biotinylated (site not stated))
- T1 construct: also called decoy receptor
- T1 sequence: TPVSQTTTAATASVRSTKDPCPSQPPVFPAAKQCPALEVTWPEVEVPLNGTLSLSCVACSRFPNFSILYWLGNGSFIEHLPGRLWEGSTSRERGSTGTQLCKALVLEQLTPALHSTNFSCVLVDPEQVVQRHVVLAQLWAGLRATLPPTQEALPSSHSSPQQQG
- assay.name: SPR, Biacore 8K, 37 C, biotinylated target on SA chip, single-cycle kinetics
Numbers only, in s⁻¹.

Looking for the measured koff of Human IL-18 N50C (ligand, Made in mammalian cells) YFGKLESKLSVIRCLNDQVLFIDQGNRPLFEDMTDSDSRDNAPRTIFIISMYKDSQPRGMAVTISVKSEKISTLSSENKIISFKEMNPPDNIKDTKSDIIFFQRSVPGHDNKMQFESSSYEGYFLACEKERDLFKLILKKEDELGDRSIMFTVQNED , can you help?
2.6e-05

Endpoint output: koff of Human IL-18 S46C/I85C (ligand, Made in mammalian cells) YFGKLESKLCVIRNLNDQVLFIDQGNRPLFEDMTDSDSRDNAPRTIFICSMYKDSQPRGMAVTISVKSEKISTLSSENKIISFKEMNPPDNIKDTKSDIIFFQRSVPGHDNKMQFESSSYEGYFLASEKERDLFKLILKKEDELGDRSIMFTVQNED . Value?
0.00012

Which koff is listed for Human IL-18 S101C/T109C (ligand, Made in mammalian cells) YFGKLESKLSVIRNLNDQVLFIDQGNRPLFEDMTDSDSRDNAPRTIFIISMYKDSQPRGMAVTICVKSEKISCLSSENKIISFKEMNPPDNIKDTKSDIIFFQRSVPGHDNKMQFESSSYEGYFLASEKERDLFKLILKKEDELGDRSIMFTVQNED ?
2.4e-05

Fill blank: measured koff of the binder Human IL-18 N50C/L174C (ligand, Made in mammalian cells) YFGKLESKLSVIRCLNDQVLFIDQGNRPLFEDMTDSDSRDNAPRTIFIISMYKDSQPRGMAVTISVKSEKISTLSCENKIISFKEMNPPDNIKDTKSDIIFFQRSVPGHDNKMQFESSSYEGYFLACEKERDLFKLICKKEDELGDRSIMFTVQNED is ____.
4.8e-05

Fill blank: measured koff of the binder Human IL-18 S46C/V189C (ligand, Made in mammalian cells) YFGKLESKLCVIRNLNDQVLFIDQGNRPLFEDMTDSDSRDNAPRTIFIISMYKDSQPRGMAVTISVKSEKISTLSSENKIISFKEMNPPDNIKDTKSDIIFFQRSVPGHDNKMQFESSSYEGYFLASEKERDLFKLILKKEDELGDRSIMFTCQNED is ____.
4.3e-05

For every item below, please supply its koff.
1. Human IL-18 S43C/S86C (ligand, Made in mammalian cells) YFGKLECKLSVIRNLNDQVLFIDQGNRPLFEDMTDSDSRDNAPRTIFIICMYKDSQPRGMAVTISVKSEKISTLSSENKIISFKEMNPPDNIKDTKSDIIFFQRSVPGHDNKMQFESSSYEGYFLASEKERDLFKLILKKEDELGDRSIMFTVQNED
2. Human IL-18 F57C/T81C (ligand, Made in mammalian cells) YFGKLESKLSVIRNLNDQVLCIDQGNRPLFEDMTDSDSRDNAPRCIFIISMYKDSQPRGMAVTISVKSEKISTLSSENKIISFKEMNPPDNIKDTKSDIIFFQRSVPGHDNKMQFESSSYEGYFLASEKERDLFKLILKKEDELGDRSIMFTVQNED
3. Human IL-18 L45C/E192C (ligand, Made in mammalian cells) YFGKLESKCSVIRNLNDQVLFIDQGNRPLFEDMTDSDSRDNAPRTIFIISMYKDSQPRGMAVTISVKSEKISTLSSENKIISFKEMNPPDNIKDTKSDIIFFQRSVPGHDNKMQFESSSYEGYFLASEKERDLFKLILKKEDELGDRSIMFTVQNCD

3.2e-05
2.2e-05
3.1e-05
